- ASSAYED_SYSTEM: Der p 1 (Dermatophagoides pteronyssinus (European house dust mite), UniProt P08176)
- Sequence (P08176 99-320): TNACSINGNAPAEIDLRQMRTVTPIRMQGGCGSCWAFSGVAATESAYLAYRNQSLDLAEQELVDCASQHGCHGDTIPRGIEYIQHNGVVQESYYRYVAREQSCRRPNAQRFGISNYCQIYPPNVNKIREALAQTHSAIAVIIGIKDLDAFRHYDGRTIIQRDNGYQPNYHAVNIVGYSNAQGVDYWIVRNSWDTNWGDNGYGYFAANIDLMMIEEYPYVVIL
- EXPERIMENTAL_DETAILS: Der p 1 enzyme activity assay (FRET fluorogenic substrate)
- Assay type: biochemical
- RUN_PARAMETERS: Der p 1 IC50
REPORTED_METRIC: IC50

MOLECULE	IC50
CNS(=O)(=O)c1ccc(CNC(=O)C(=O)[C@@H](NC(=O)[C@H](C)NC(=O)[C@@H](N2Cc3ccccc3C2=O)C(C)(C)C)C(C)C)cc1	< 20 nM

Query block: Give its IC50 value. Item: `CC(C)[C@H](NC(=O)[C@H](C)NC(=O)[C@@H](NC(=O)c1ccccc1)C(C)(C)C)C(=O)C(=O)NC1CCCCC1`
Result block: < 20 nM

Query block: If you can, please state the reported IC50 value of `CC(C)[C@H](NC(=O)[C@H](C)NC(=O)[C@@H](NC(=O)c1ccccc1)C(C)(C)C)C(=O)C(=O)NCC(=O)N1CCN(C)CC1` .
Result block: < 20 nM

---

- ASSAYED_SYSTEM: Der p 1 (Dermatophagoides pteronyssinus (European house dust mite), UniProt P08176)
- EXPERIMENTAL_DETAILS: Der p 1 enzyme activity assay (FRET fluorogenic substrate)
- Type: biochemical
- RUN_PARAMETERS: threshold stated in text; read-out: Der p 1 IC50
Examples of compounds with documented IC50 follow.

Would you please look over these solved cases?
CHEMICAL_STRING	ASSAYED_SYSTEM	IC50
CC(C)[C@H](NC(=O)[C@H](C)NC(=O)[C@@H](NC(=O)C1CCN(C)CC1)C(C)(C)C)C(=O)C(=O)NC1CCCCC1	Der p 1 (Dermatophagoides pteronyssinus (European house dust mite), UniProt P08176)	< 200 nM
CC(C)[C@H](NC(=O)[C@H](C)NC(=O)[C@@H](NC(=O)c1ccccc1)C(C)(C)C)C(=O)C(=O)NCc1ccc(=O)[nH]c1	Der p 1 (Dermatophagoides pteronyssinus (European house dust mite), UniProt P08176)	< 20 nM

Please examine the following record next.
Query block: Any idea what IC50 was measured for `CC(C)[C@H](NC(=O)[C@H](C)NC(=O)[C@@H](NC(=O)c1ccccc1)C(C)(C)c1ccccc1)C(=O)C(N)=O` ?
Result block: < 20 nM

---

pIC50 values for the compounds below.
- ASSAYED_SYSTEM: Der p 1 (Dermatophagoides pteronyssinus (European house dust mite), UniProt P08176)
- EXPERIMENTAL_DETAILS: Der p 1 enzyme activity assay (FRET fluorogenic substrate)
- Assay type: biochemical
- RUN_PARAMETERS: threshold stated in text; read-out: Der p 1 IC50
- Procedure: The fluorogenic substrate used for measuring Der p 1 proteolytic activity was 2-aminobenzoylvalylalanylnorleucylseryl-(3-nitro)tyrosinyl aspartamide. […] Inhibitory activity was analysed from progress curves of reactions in the presence of a range of inhibitor concentrations. […] Then, IC50 was determined by fitting the data of fractional activity and inhibitor concentration to a 4-parameter logistic curve, using Equation 2: V=Vmin+[Vmax−Vmin]/[1+(X/IC50)Hillslope] […]
pIC50: −log10 of the molar value.

COMPOUND	pIC50
CC(C)[C@H](NC(=O)[C@H](C)NC(=O)[C@@H](Cc1ccc(-c2ccccc2)cc1)NC(=O)c1ccccc1)C(=O)C(=O)NCc1ccccc1 [PVA-033]	> 6.70
CC(C)NC(=O)C(=O)[C@@H](NC(=O)[C@H](C)NC(=O)[C@H](Cc1ccccc1)NC(=O)c1ccccc1)C(C)C [PVA-015]	> 6.70
CC(C)[C@H](NC(=O)[C@H](C)NC(=O)[C@@H](NC(=O)c1ccccc1)C(C)(C)C)C(=O)C(=O)NCc1ccnn1C [PVA-167]	> 6.70
CC(C)[C@H](NC(=O)[C@H](C)NC(=O)[C@@H](NC(=O)c1ccccc1)C(C)(C)C)C(=O)C(=O)N[C@H](C)c1ccccc1 [PVA-132]	> 7.70

Query block: Quick one: pIC50 of CC(C)[C@H](NC(=O)[C@H](C)NC(=O)[C@@H](NC(=O)c1ccccc1)C(C)(C)C)C(=O)C(=O)NCc1ccc(F)cc1 [PVA-178] ?
Result block: > 7.70

Query block: # pIC50 lookup, item CC(C)[C@H](NC(=O)[C@H](C)NC(=O)[C@@H](N1Cc2ccccc2C1=O)C(C)(C)C)C(=O)C(=O)NCC(=O)N1CCc2ccccc2C1 [PVA-212]
Result block: > 7.70
